# CC50 at 5 days annotations
assay: Cytotoxicity in mock-infected MT-4 cells; assay type: cell-based; details: human

compound: O=C(Nc1sc2c(c1C(=O)Nc1ccccn1)CCCCC2)c1ccc(O)c(O)c1 [Compound 33]
unit of measure: µM
CC50 at 5 days: 30.7
//
compound: COc1ccc(C(=O)Nc2sc3c(c2C(=O)Nc2ccccn2)CCCCC3)cc1OC [Compound 31]
unit of measure: µM
CC50 at 5 days: 6.24

====

target: HIV-1 RT-associated RNA dependent DNA polymerase (Human immunodeficiency virus type 1 group M subtype B)
# IC50 annotations

compound structure: O=C(Nc1sc2c(c1C(=O)Nc1ccccn1)CCCCC2)c1cccs1
IC50: > 50 µM
//
compound structure: O=C(Cc1ccccc1F)Nc1sc2c(c1C(=O)Nc1ccccn1)CCCCC2
IC50: > 50 µM
//
compound structure: O=C(Nc1sc2c(c1C(=O)Nc1ccccn1)CCCCC2)c1ccc(O)c(O)c1
IC50: 20.9 µM
//
compound structure: O=C(Nc1sc2c(c1C(=O)Nc1ccccn1)CCCCC2)c1ccccc1Br
IC50: > 50 µM
//
compound structure: COc1ccc(C(=O)Nc2sc3c(c2C(=O)Nc2ccccn2)CCCCC3)cc1OC
IC50: > 50 µM
